Where do these numbers come from? They come from patent US20120316071A1.

- Test target: T1, Recombinant Human DLL4 (human, UniProt Q9NR61 27-524)
- T1 construct: Bought recombinant human DLL4 (R&D Systems 1506-D4/CF); also called delta-like protein 4; rHuman DLL4
- Test: ELISA on plate-coated DLL4, Fab at 20 nM (3-fold serial dilution)
Listed next: entries and their corresponding ELISA signal.
Please give the numeric answer without any surrounding text.

[[record]]
binder = "Fab VH1-46_IGHD6-6*01_IGHJ1*01 S102A/S103P/S104F/H111F I51V/N52L/S54T/G56H & L6_IGKJ1*01 S28N/S30D/S31H S52L/A55G (Fab, V domains shown, Fab expressed in E. coli: VH joined to CH1 from Plasmid A (His6 and Flag tags), VL joined to kappa CL from Plasmid C; also called H:APFF VLTH & L:NDH LG) VH: QVQLVQSGAEVKKPGASVKVSCKASGYTFTSYYMHWVRQAPGQGLEWMGIVLPTGHSTSYAQKFQGRVTMTRDTSTSTVYMELSSLRSEDTAVYYCAREEYAPFSAEYFQFWGQGTLVTVSS VL: EIVLTQSPATLSLSPGERATLSCRASQNVDHYLAWYQQKPGQAPRLLIYDALNRGTGIPARFSGSGSGTDFTLTISSLEPEDFAVYYCQQRSNWPPWTFGQGTKVEIKR"
data_value = 1.06


Kindly review the next binder as well.
Lookup result for Fab VH1-46_IGHD6-6*01_IGHJ1*01 S102A/S103P/S104F/H111F I51A/N52L/S54T/G56H & L6_IGKJ1*01 S28N/S30D/S31H S52L/A55G (Fab, V domains shown, Fab expressed in E. coli: VH joined to CH1 from Plasmid A (His6 and Flag tags), VL joined to kappa CL from Plasmid C; also called H:APFF ALTH & L:NDH LG) VH: QVQLVQSGAEVKKPGASVKVSCKASGYTFTSYYMHWVRQAPGQGLEWMGIALPTGHSTSYAQKFQGRVTMTRDTSTSTVYMELSSLRSEDTAVYYCAREEYAPFSAEYFQFWGQGTLVTVSS VL: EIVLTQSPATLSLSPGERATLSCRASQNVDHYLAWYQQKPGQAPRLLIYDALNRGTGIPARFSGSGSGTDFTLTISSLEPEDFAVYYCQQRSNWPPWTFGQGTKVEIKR ; measured ELISA signal: 0.39
